Tested on: P-Akt (S473)
PROTOCOL: Cell based AlphaLISA assay, inhibition of P-Akt (S473) (mTORC2 substrate phosphorylation) in MDA-MB-468 cells
SETUP_CONDITIONS: Homo sapiens, MDA-MB-468, 4 h, AlphaLISA, two to four hours at 37° C., read-out: pIC50 for Inhibition of mTORC1 and mTORC2 Substrate Phosphorylation, p-AKT 1/2/3 -(S473) (converted)
METRIC: IC50

[[record]]
molecule = "CO[C@H]1C[C@@H]2CC[C@@H](C)[C@@](O)(O2)C(=O)C(=O)N2CCCC[C@H]2C(=O)O[C@H]([C@H](C)C[C@@H]2CC[C@H](n3cc(-c4cnc(N5CCN(c6ncc(C(=O)NCCOCCOCCOCCC(=O)NCCCCn7nc(-c8cc9cc(O)ccc9[nH]8)c8c(N)ncnc87)cn6)CC5)nc4)nn3)[C@H](OC)C2)CC(=O)[C@H](C)/C=C(\\C)[C@@H](O)[C@@H](OC)C(=O)[C@H](C)C[C@H](C)/C=C/C=C/C=C/1C [Example 114]"
value_reported = "> 1 µM"

[[record]]
molecule = "CO[C@H]1C[C@@H]2CC[C@@H](C)[C@@](O)(O2)C(=O)C(=O)N2CCCC[C@H]2C(=O)O[C@H]([C@H](C)C[C@@H]2CC[C@H](n3cc(COC(=O)NCCOCCOCCOCCC(=O)NCCOCCOCCOCCC(=O)NCCCCn4nc(-c5cc6cc(O)ccc6[nH]5)c5c(N)ncnc54)nn3)[C@H](OC)C2)C/C(=N/OC(C)(C)C)[C@H](C)/C=C(\\C)[C@@H](O)[C@@H](OC)C(=O)[C@H](C)C[C@H](C)/C=C/C=C/C=C/1C [Example 161]"
value_reported = "> 1 µM"

[[record]]
molecule = "CO[C@H]1C[C@@H]2CC[C@@H](C)[C@@](O)(O2)C(=O)C(=O)N2CCCC[C@H]2C(=O)O[C@H]([C@H](C)C[C@@H]2CC[C@@H](O)[C@H](OC)C2)C[C@@H](O)[C@H](C)/C=C(\\C)[C@@H](O)[C@@H](OC)C(=NOCc2cn(CCOCCOCCOCCOCCOCCOCCOCCOCCC(=O)NCCCCn3nc(-c4ccc5oc(N)nc5c4)c4c(N)ncnc43)nn2)[C@H](C)C[C@H](C)/C=C/C=C/C=C/1C [Example 50]"
value_reported = "0.0316 to 1 µM"

[[record]]
molecule = "CO[C@H]1C[C@@H]2CC[C@@H](C)[C@@](O)(O2)C(=O)C(=O)N2CCCC[C@H]2C(=O)O[C@H]([C@H](C)C[C@@H]2CC[C@H](n3cc(CCCC(=O)NCCOCCOCCOCCC(=O)NCCOCCOCCOCCC(=O)NCCCCn4nc(-c5cc6cc(O)ccc6[nH]5)c5c(N)ncnc54)nn3)[C@H](OC)C2)C[C@@H](OC)[C@H](C)/C=C(\\C)[C@@H](O)[C@@H](OC)C(=O)[C@H](C)C[C@H](C)/C=C/C=C/C=C/1C [Example 179]"
value_reported = "> 1 µM"


[Q] What IC50 value was documented for this molecule, CO[C@H]1C[C@@H]2CC[C@@H](C)[C@@](O)(O2)C(=O)C(=O)N2CCCC[C@H]2C(=O)O[C@H]([C@H](C)C[C@@H]2CC[C@@H](OCCCCc3cn(CCOCCOCCOCCOCCOCCOCCC(=O)NCCCCn4nc(-c5cnc6[nH]ccc6c5)c5c(N)ncnc54)nn3)[C@H](OC)C2)C[C@@H](OC)[C@H](C)/C=C(\C)[C@@H](O)[C@@H](OC)C(=O)[C@H](C)C[C@H](C)/C=C/C=C/C=C/1C [Example 70] ?
[A] > 1 µM

meta.source: patent US20230093861A1
